# tgt: Estrogen receptor (Homo sapiens, UniProt P03372)
# Sequence (P03372 whole entry): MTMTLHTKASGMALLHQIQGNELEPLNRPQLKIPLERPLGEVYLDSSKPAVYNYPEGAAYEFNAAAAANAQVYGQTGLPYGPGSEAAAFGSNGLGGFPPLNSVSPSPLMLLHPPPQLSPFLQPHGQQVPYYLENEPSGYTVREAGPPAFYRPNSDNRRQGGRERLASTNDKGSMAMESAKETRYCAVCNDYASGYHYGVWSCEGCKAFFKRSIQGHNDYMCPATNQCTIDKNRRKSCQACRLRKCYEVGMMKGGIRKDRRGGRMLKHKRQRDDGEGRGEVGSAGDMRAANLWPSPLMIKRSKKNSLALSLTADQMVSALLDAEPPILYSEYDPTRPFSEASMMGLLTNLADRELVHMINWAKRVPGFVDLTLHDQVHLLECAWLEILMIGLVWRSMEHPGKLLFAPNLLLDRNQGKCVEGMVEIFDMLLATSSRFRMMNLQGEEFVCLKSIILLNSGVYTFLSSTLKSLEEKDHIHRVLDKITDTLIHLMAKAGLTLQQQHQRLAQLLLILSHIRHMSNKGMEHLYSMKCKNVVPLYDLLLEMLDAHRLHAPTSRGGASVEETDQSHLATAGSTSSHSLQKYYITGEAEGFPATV
Please assign -1 whenever EC50 is at or above 0.9 µM, and 1 whenever it is below.

CCCC1(Cc2ccc(O)cc2)CCc2cc(O)ccc21 (stereo not drawn): 1
Cc1cc(O)ccc1CC1(C#N)CCc2cc(O)ccc21 (stereo not drawn): -1
N#CC1(Cc2ccc(O)cc2)CCc2cc(O)ccc21 (racemic): -1

Threshold test, EC50 < 0.9 µM: Oc1ccc(CC2CCc3ccc(O)cc32)cc1 (stereo not drawn) -1

Is 0.9 µM strictly greater than the compound's reported EC50? compound: N#CC1(Cc2ccc(O)cc2F)CCc2cc(O)ccc21 (stereo not drawn) 1

Field: below-cutoff. Rule: recorded EC50 strictly less than 0.9 µM. Subject: CCC1(Cc2ccc(O)cc2)CCc2cc(O)ccc21 (stereo not drawn) 1

Identify whether the compound N#C[C@@]1(Cc2ccc(O)cc2)CCc2cc(O)ccc21 records EC50 below 0.9 µM. -1

Strictly below 0.9 µM in EC50? Oc1cccc(CC2CCc3cc(O)ccc32)c1 (stereo not drawn) -1
